The entries below come with measured pIC50 values attached.
molecular target: human fibroblast stromelysin (Homo sapiens, UniProt P08254); test: Assay for inhibition of stromelysin (fluorescein-labeled casein substrate); type: biochemical
Sequence (P08254 100-477): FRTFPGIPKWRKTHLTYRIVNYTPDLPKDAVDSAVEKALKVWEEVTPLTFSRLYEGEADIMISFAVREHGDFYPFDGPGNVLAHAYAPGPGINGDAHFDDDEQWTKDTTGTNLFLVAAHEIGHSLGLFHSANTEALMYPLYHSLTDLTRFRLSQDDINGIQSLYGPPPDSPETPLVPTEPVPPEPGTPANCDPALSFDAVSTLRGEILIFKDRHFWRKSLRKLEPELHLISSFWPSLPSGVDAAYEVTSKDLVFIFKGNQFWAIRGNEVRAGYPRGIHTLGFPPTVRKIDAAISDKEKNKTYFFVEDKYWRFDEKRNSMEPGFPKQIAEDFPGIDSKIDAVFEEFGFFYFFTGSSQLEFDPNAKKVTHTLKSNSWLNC
pIC50 here is simply -log10 of the concentration when that concentration is written in mol/L.

Reference set, count: 2
molecule	observedResult
CC(=N)NCCCCC(NC(=O)C(CC(C)C)C(CCCc1ccccc1)C(=O)NO)C(=O)NCCN(C)C (stereo not drawn)	7.77
CNC(=O)C(CCCCNC(C)=N)NC(=O)C(CC(C)C)C(CCCc1ccccc1)C(=O)NO (stereo not drawn)	7.92

Please turn your attention to the following entry.
Item CNC(=O)C(Cc1ccc(CN)cc1)NC(=O)C(CC(C)C)C(C)C(=O)NO (stereo not drawn) has what recorded pIC50?
7.80
